Every entry's value here was drawn from PubChem BioAssay (NCI).

In this section, each of the compounds is paired with its reported TGI.
- Tested on: RXF 393 renal
- Protocol Description: NCI tumour cell line growth inhibition, 48 h
Where a SMILES comes first, the peptide text is derived from it. [ ]: non-standard residue; d: D form. The star is where a group is joined. NMeF = CN[CH](Cc1ccccc1)C(=O)O; NMeV = CN[CH](C(=O)O)C(C)C; Boc = CC(C)(C)OC(=O)*
Parameter Measured: TGI (µM)

{"Compound": "COc1cccc2c(Nc3ccc(C(=O)O)cc3)cc(-c3ccccc3)nc12", "Parameter Measured": "TGI", "Relation Sign": ">", "Numeric Readout": 100}
{"Compound": "CCOC(=O)Nn1cnnc1C", "Parameter Measured": "TGI", "Relation Sign": ">", "Numeric Readout": 100}
{"Compound": "CC(C)C(NC(=O)OC(C)(C)C)C(=O)N(C)C(Cc1ccccc1)C(=O)N(C)C(C(=O)N(C)C(C(=O)O)C(C)C)C(C)C (stereo not given) (Boc-V[NMeF][NMeV][NMeV]-OH; configuration not given here)", "Parameter Measured": "TGI", "Relation Sign": ">", "Numeric Readout": 100}
{"Compound": "COc1ccc(OC)c2c(C(=O)O)c(C(C)c3ccccc3)ccc12 (stereo not given)", "Parameter Measured": "TGI", "Relation Sign": ">", "Numeric Readout": 100}
{"Compound": "COc1cc(C2C(C(=O)O)=C(CO)Oc3cc4c(cc32)OCO4)cc(OC)c1OC (stereo not given)", "Parameter Measured": "TGI", "Relation Sign": ">", "Numeric Readout": 100}
{"Compound": "O=C(Nc1ccc(OCc2nnc(-c3ccc(Cl)cc3)o2)c(F)c1)Nc1ccc(Cl)c(Cl)c1", "Parameter Measured": "TGI", "Relation Sign": "=", "Numeric Readout": 24.2}
{"Compound": "C=CC(=O)N1CC2(CCC(n3nc(-c4ccc(Oc5ccccc5)cc4)c4c(N)ncnc43)CC2)C1", "Parameter Measured": "TGI", "Relation Sign": "=", "Numeric Readout": 0.267}
{"Compound": "O=C(C=P(c1ccccc1)(c1ccccc1)c1ccccc1)CC(=S)CC(=O)C=P(c1ccccc1)(c1ccccc1)c1ccccc1", "Parameter Measured": "TGI", "Relation Sign": "=", "Numeric Readout": 25.2}
{"Compound": "C=C1CCC(O)C/C1=C/C=C1\\CCCC2(C)C1CCC2C(C)CCCC(C)C (stereo not given)", "Parameter Measured": "TGI", "Relation Sign": "=", "Numeric Readout": 33.4}
{"Compound": "CC(C)(C)OCC1NC(=O)[C@@H]2Cc3c([nH]c4ccccc34)C(C3CCCCC3)N2C1=O (stereo not given in full)", "Parameter Measured": "TGI", "Relation Sign": "=", "Numeric Readout": 38.4}
{"Compound": "C/C(=N/NC(=S)N1CCCCC1)c1cccc(/C(C)=N\\NC(=S)N2CCCCC2)n1", "Parameter Measured": "TGI", "Relation Sign": "=", "Numeric Readout": 5.15}
{"Compound": "N#CC1=C(Cl)NC(Cl)=C(C#N)C1c1ccc(Cl)cc1", "Parameter Measured": "TGI", "Relation Sign": "=", "Numeric Readout": 32.9}
{"Compound": "OC1(c2ccccc2)CSc2ncnn21 (stereo not given)", "Parameter Measured": "TGI", "Relation Sign": ">", "Numeric Readout": 100}
{"Compound": "COc1ccc([C@H]2[C@H](C)C3=Nc4ccccc4CN32)cc1", "Parameter Measured": "TGI", "Relation Sign": ">", "Numeric Readout": 100}
{"Compound": "O=C(CSc1nnc(Cc2ccccc2)o1)Nc1ccc(Cl)cc1Cl", "Parameter Measured": "TGI", "Relation Sign": ">", "Numeric Readout": 100}
{"Compound": "O=C1Nc2ccc(Br)cc2C1=Nc1ccc2c(c1)OCO2", "Parameter Measured": "TGI", "Relation Sign": "=", "Numeric Readout": 38.9}
{"Compound": "O=c1c2ccccc2nc(-c2ccccc2Cl)n1NCC1(O)OCC(O)C(O)C1O (stereo not given)", "Parameter Measured": "TGI", "Relation Sign": ">", "Numeric Readout": 100}
{"Compound": "C[C@]12CC[C@H](O)CC1=CC[C@@H]1C2CC[C@]2(C)NC(=O)C(C#N)CC12 (stereo not given in full)", "Parameter Measured": "TGI", "Relation Sign": ">", "Numeric Readout": 100}
{"Compound": "C=CCSSC1N=CNc2nc[nH]c21 (stereo not given)", "Parameter Measured": "TGI", "Relation Sign": "=", "Numeric Readout": 21.5}
{"Compound": "CC1(C)C2CCC1(C)[C@H](O)[C@H]2Nc1cc(C(F)(F)F)cc(C(F)(F)F)c1 (stereo not given in full)", "Parameter Measured": "TGI", "Relation Sign": "=", "Numeric Readout": 9.03}

---

Let's look at some compounds and their measured TGI.
- Tested on: SW-620 colon
- Protocol Description: NCI tumour cell line growth inhibition, 48 h

{"Compound": "O=C(NNc1cn[nH]c(=O)n1)c1cccc2nc3ccccc3nc12", "TGI": "> 100 µM"}
{"Compound": "CCOP(=O)(OCC)/C(C#N)=C/c1coc2cc(C)cc(C)c2c1=O", "TGI": "> 100 µM"}
{"Compound": "O=C(c1ccccc1)c1ccc2nc(-c3c(Cl)c(Cl)c(Cl)c(Cl)c3C(=O)N/N=C\\C=C\\c3ccccc3)[nH]c2c1", "TGI": "> 100 µM"}
{"Compound": "CC(=O)NCCC1CN(C(=O)/C=C\\I)c2ccccc21 (stereo unspecified)", "TGI": "38.6 µM"}
{"Compound": "CC1c2ccccc2Cn2cc3c(c21)C(=O)c1cccc(OP(=O)(O)OCc2ccccc2)c1C3=O (stereo unspecified)", "TGI": "> 100 µM"}
{"Compound": "NC1CCCCC1N.O=NN1CCCCCC1(P(=O)([O-])[O-])P(=O)([O-])[O-].[Na+].[Pt+2]", "TGI": "> 100 µM"}
{"Compound": "CCOC(=O)Nn1cnnc1C", "TGI": "> 100 µM"}
{"Compound": "C=C(CN1CCc2ccccc2C1)c1ccc(CCC(=O)Nc2ccccc2N)cc1", "TGI": "65.8 µM"}
{"Compound": "Cc1cc(C23OC4COC(C)(C)OC4C2OC(C)(C)O3)nc2ccccc12 (stereo unspecified)", "TGI": "> 100 µM"}
{"Compound": "Clc1ccc(Cl)c(NNc2cc(Cl)ccc2Cl)c1", "TGI": "> 10 µM"}
{"Compound": "CC(=O)Nc1cccc(C#Cc2cncnc2Nc2ccc(OCc3cccc(F)c3)c(Cl)c2)n1", "TGI": "> 25 µM"}
{"Compound": "COc1ccc(NCc2cc(OC)cc(OC)c2)cc1", "TGI": "> 100 µM"}
{"Compound": "C=C1CC(OC)(C(OC)C(=O)N(C)[C@H]2OCO[C@H]3C2O[C@H](C[C@@H](COC)OC)C(C)(C)C3OC)O[C@H](C)[C@@H]1C (stereo partly specified)", "TGI": "> 91.7 µM"}
{"Compound": "CCOC(=O)N1CCN(c2ccc3ccc(N)nc3n2)CC1", "TGI": "> 100 µM"}
{"Compound": "O/N=C(\\C(=N/O)Nc1ccc(-c2ccc(NC(=N/O)/C(=N\\O)c3ccccc3)cc2)cc1)c1ccccc1", "TGI": "49.8 µM"}
{"Compound": "COCn1cnc2c(=O)n(-c3ccc(C)cc3)c(=S)n(-c3ccc(C)cc3)c21", "TGI": "> 100 µM"}
{"Compound": "CCCCCC(=O)OCCOCCOCCOCCOCCOCc1ccccc1", "TGI": "> 100 µM"}
{"Compound": "CCCCc1[nH]ccc2c(C)c3nc4ccccc4c3cc12", "TGI": "6.78 µM"}
{"Compound": "COc1ccc(C2C(C#N)=C(N)Oc3c2sc2c(C)cccc32)cc1 (stereo unspecified)", "TGI": "16.2 µM"}
{"Compound": "COC(=O)c1cc(CC2Cc3cc4c(cc3C2)CCC4)cc2c1CCC2", "TGI": "> 100 µM"}
{"Compound": "COc1ccc(C(=O)Cc2ccc(Cl)cc2)cc1OC", "TGI": "> 100 µM"}

---

Catalogue of molecules with associated TGI
- System: HOP-62 NSCLC
- Protocol Description: NCI tumour cell line growth inhibition, 48 h
Where a SMILES comes first, the peptide text is derived from it. [ ]: non-standard residue; d: D form. The star is where a group is joined. Nle = CCCC[C@H](N)C(=O)O; Cbz = O=C(OCc1ccccc1)*

{"Molecule": "CCOC(=O)C1=CC(C)(C(=O)OCC)Nc2c(nc(SC)[nH]c2=O)N1 (centres undefined)", "TGI": "> 10 µM"}
{"Molecule": "CCOC(=O)N1CCN(c2ccc3ccc(N)nc3n2)CC1", "TGI": "> 100 µM"}
{"Molecule": "O=C(O)c1ccc(C=C2Sc3ccccc3S2)cc1", "TGI": "> 100 µM"}
{"Molecule": "COc1cc(-c2ccc(N=Nc3c(S(=O)(=O)O)cc4cc(S(=O)(=O)O)cc(N)c4c3O)c(OC)c2)ccc1N=Nc1c(S(=O)(=O)O)cc2cc(S(=O)(=O)O)cc(N)c2c1O", "TGI": "> 100 µM"}
{"Molecule": "COc1ccc(C(=O)Cc2ccc(Cl)cc2)cc1OC", "TGI": "> 100 µM"}
{"Molecule": "O=C1NC(c2cccc3ccccc23)Nc2ccc(O)cc21 (centres undefined)", "TGI": "121 µM"}
{"Molecule": "COc1ccc(C2c3c(n(C)c(=O)n(C)c3=O)OC(N(C)C)(N(C)C)C2(F)F)cc1 (centres undefined)", "TGI": "> 100 µM"}
{"Molecule": "CC(C)OC(=O)Nc1ccc(-c2nc(-c3cccc(OCCN4CCOCC4)c3)c(-c3ccnc(Br)c3)[nH]2)cc1", "TGI": "> 100 µM"}
{"Molecule": "O=C1CC(c2ccccc2Cl)C2(C(=O)NC(=S)NC2=O)C(c2ccccc2Cl)C1 (centres undefined)", "TGI": "> 100 µM"}
{"Molecule": "COc1cc(/C=C2/SC(c3ccccc3)N(c3cc(Cl)ccc3Cl)C2=O)cc(OC)c1OC (centres undefined)", "TGI": "> 100 µM"}
{"Molecule": "NS(=O)(=O)c1ccc(N=Nc2ncccc2O)cc1", "TGI": "> 100 µM"}
{"Molecule": "Cc1cc2nc3c4cc(C=O)ccc4n(CCN(C)C)c3nc2cc1C", "TGI": "10.1 µM"}
{"Molecule": "CCOP(=O)(OCC)OC1c2[nH]ccc2-c2cc(C(=O)OC)[nH]c2C1OC (centres undefined)", "TGI": "> 100 µM"}
{"Molecule": "CCCC[C@@H](C=O)NC(=O)[C@H](CC(C)C)NC(=O)[C@H](CC(C)C)NC(=O)OCc1ccccc1 (Cbz-Leu-Leu-[Nle]-aldehyde)", "TGI": "1.55 µM"}
{"Molecule": "Cc1cc(C)nc(NS(=O)(=O)c2ccc(NNc3c4ccccc4nc4c(C(=O)Nc5ccc(S(=O)(=O)N=C(N)N)cc5)cccc34)cc2)n1", "TGI": "> 100 µM"}
{"Molecule": "CC1=C(/C=C/C(C)=C/C=C/C(C)=C/C=C/C=C(C)/C=C/C=C(C)/C=C/C=C(C)/C=C/C=C(\\C)C(=O)O)C(C)(C)CCC1", "TGI": "> 100 µM"}
{"Molecule": "Cc1nc2nn[nH]n2c(=O)c1CCO", "TGI": "> 100 µM"}
{"Molecule": "Cc1cc2c(cc1C)[n+]([O-])c(NCCCN(C)C)c(C#N)[n+]2[O-]", "TGI": "> 100 µM"}
{"Molecule": "CCCCC1C=Cn2c(=O)oc3c(OC(C)C)c(OC(C)C)c(O)c1c32 (centres undefined)", "TGI": "38 µM"}
